Experiment: amyloid nucleation score (Sup35N fusion, yeast selection) (log enrichment); library NNK3; higher = more nucleation; inactive = no reads after selection;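 further: zero at mode of non-aggregating sequences after 7 days selection at 30°C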
RECORDED_ENDPOINT: amyloid nucleation score

// known answers, use as guide
SUBSTANCE	amyloid nucleation score
CYLVGLCLLFGVQVSGLPYR	0.798
IYYIDL	inactive
IFLVVPGHDLWNCRRS	inactive
VPPVVSAP	1.05
PPPCKYLPAEVGLLFKSSLG	inactive

Give a short answer stating reported amyloid nucleation score for LAMSYYLYPGSCDLKRS . inactive

Provide measured amyloid nucleation score value, entry: DYIYILSW inactive

Quickly give me recorded amyloid nucleation score for RTFPLTLRSSHSPFKPLMFL inactive

For the substance FLGTHEGTDRLLWCVIEEKG , report amyloid nucleation score. inactive

Answer with the recorded amyloid nucleation score for the substance listed here: LFMKRLFLSWFSMVVICGAP 0.362
